Experiment: EFV plasma pharmacokinetics when co-administered with DTG, by CYP2B6 genotype
Settings: human, in vivo, C max, EFV with DTG, CYP2B6*6/*6 subjects n=3, geometric mean (CV%)
measured_endpoint: Cmax (ng/mL)
I only need the number, in ng/mL, no unit after it.

Task: Please indicate Cmax recorded for O=C1Nc2ccc(Cl)cc2[C@@](C#CC2CC2)(C(F)(F)F)O1
Output: 9500

----------
Assay: EFV plasma pharmacokinetics when co-administered with DTG, by CYP2B6 genotype
Conditions: human, in vivo, T max, EFV with DTG, CYP2B6*1/*1 or *1/*6 subjects n=6, median (range)
measured_endpoint: Tmax (h)
I only need the number, in h, no unit after it.

Task: Please indicate Tmax recorded for O=C1Nc2ccc(Cl)cc2[C@@](C#CC2CC2)(C(F)(F)F)O1 [EFV, efavirenz]
Output: 2.5
